- assay-name: Aqueous solubility, pH dependent
- Format: physicochemical
- details: aqueous medium, pH 5, aqueous buffer
experimental-readout: solubility (µM)
Report the figure in µM without appending any unit label.

Note solubility for the molecule shown: CCCCCc1cc(O)c2c(c1)OC(C)(C)C1CCC(C)=CC21 (stereo not shown) [THC, Δ^9-Tetrahydrocannabinol, reference compound]
2.23

----------
- assay-name: Aqueous solubility, pH dependent
- Type: physicochemical
- details: pH 6
Give measured Aqueous Solubility for each item. Keep answers brief.
Enter your answer as a number in µg/mL; do not include the unit.

Let me know recorded Aqueous Solubility for CCCCCc1cc(OC(=O)C(N)C(C)C)c2c(c1)OC(C)(C)C1CCC(C)=CC21 (stereo not drawn) [THC-Valinate (6), Δ^9-THC-valinate] , thanks.
0.07

Note down Aqueous Solubility recorded for CCCCCc1cc(OC(=O)C(N)CC(C)C)c2c(c1)OC(C)(C)C1CCC(C)=CC21 (stereo not drawn) [THC-Leucinate (8), Δ^9-THC-leucinate]
0.08

Given the compound CCCCCc1cc(OC(=O)C(NC(=O)CCC(=O)O)C(C)C)c2c(c1)OC(C)(C)C1CCC(C)=CC21 (stereo not drawn) [THC-Valinate-HS (15), THC-valinate-hemisuccinate] , write its reported Aqueous Solubility.
12.74

Tell me its Aqueous Solubility given CCCCCc1cc(OC(=O)[C@@H](N)C(C)C)c2c(c1)OC(C)(C)C1CCC(C)=CC21.O=C(O)CC(=O)O (stereo partly drawn) [THC-Valinate malonate] as the entry.
0.13

// fetch Aqueous Solubility given entry CCCCCc1cc(OC(=O)[C@@H](N)CCC(N)=O)c2c(c1)OC(C)(C)[C@@H]1CCC(C)=C[C@@H]21 [THC-Glutaminate (9), Δ^9-THC-glutaminate]
2.15

Fill in Aqueous Solubility for record CCCCCc1cc(OC(=O)CNC)c2c(c1)OC(C)(C)[C@@H]1CCC(C)=C[C@@H]21 [THC-Sarcosinate (7), Δ^9-THC-sarcosinate]
0.53

----------
- assay-name: Aqueous solubility, pH dependent
- Format: physicochemical
- details: aqueous medium, pH 8, aqueous buffer
experimental-readout: solubility (µM)
Unit µM implied. Number only.

Please report solubility for the following molecule: CCCCCc1cc(O)c2c(c1)OC(C)(C)C1CCC(C)=CC21 (stereo not shown) [THC, Δ^9-Tetrahydrocannabinol, reference compound]
2.23

----------
- assay-name: Chemical stability pH dependent at 25° C.
- Type: physicochemical
- details: Buffer pH 9.0, 25° C.
experimental-readout: First order rate constant

{"compound": "CCCCCc1cc(OC(=O)[C@@H](N)CCC(N)=O)c2c(c1)OC(C)(C)[C@@H]1CCC(C)=C[C@@H]21 [THC-Glutaminate (9), Δ^9-THC-glutaminate]", "First order rate constant": "756.35 ± 106.61 ×10^−3 h^−1"}
{"compound": "CCCCCc1cc(OC(=O)CCCc2ccc(NC(=O)CCC(=O)O)cc2)c2c(c1)OC(C)(C)[C@@H]1CCC(C)=C[C@@H]21", "First order rate constant": "Stable"}
{"compound": "CCCCCc1cc(OC(=O)CNC)c2c(c1)OC(C)(C)[C@@H]1CCC(C)=C[C@@H]21 [THC-Sarcosinate (7), Δ^9-THC-sarcosinate]", "First order rate constant": "1209.25 ± 203.05 ×10^−3 h^−1"}
{"compound": "CCCCCc1cc(OC(=O)C(NC(=O)CCC(=O)O)C(C)C)c2c(c1)OC(C)(C)C1CCC(C)=CC21 (stereo not shown) [THC-Valinate-HS (15), THC-valinate-hemisuccinate]", "First order rate constant": "Stable"}

# return recorded First order rate constant for entry CCCCCc1cc(OC(=O)[C@@H](N)Cc2ccc(O)cc2)c2c(c1)OC(C)(C)[C@@H]1CCC(C)=C[C@@H]21 [THC-Tyrosinate (11), Δ^9-THC-tyrosinate]
53.88 ± 11.36 ×10^−3 h^−1

Note down First order rate constant recorded for CCCCCc1cc(OC(=O)C(N)CC(C)C)c2c(c1)OC(C)(C)C1CCC(C)=CC21 (stereo not shown) [THC-Leucinate (8), Δ^9-THC-leucinate]
119.98 ± 33.51 ×10^−3 h^−1

Please supply the value of reported First order rate constant for the item CCCCCc1cc(OC(=O)C(N)C(C)C)c2c(c1)OC(C)(C)C1CCC(C)=CC21 (stereo not shown) [THC-Valinate (6), Δ^9-THC-valinate]
67.64 ± 7.67 ×10^−3 h^−1

----------
- assay-name: Aqueous solubility, pH dependent
- Type: physicochemical
- details: pH 2, aqueous buffer
experimental-readout: solubility (µM)
Write the answer as a number in µM, unit excluded.

Note down solubility recorded for CCCCCc1cc(O)c2c(c1)OC(C)(C)C1CCC(C)=CC21 (stereo not shown) [THC, Δ^9-Tetrahydrocannabinol, reference compound]
0.95

----------
- assay-name: Aqueous solubility, pH dependent
- Type: physicochemical
- details: aqueous medium at pH 4, pH 4, aqueous buffer
experimental-readout: solubility (µg/mL)
Provide the reading as a plain figure in µg/mL.

Retrieve solubility measured for CCCCCc1cc(O)c2c(c1)OC(C)(C)C1CCC(C)=CC21 (stereo not shown) [THC, Δ^9-Tetrahydrocannabinol, reference compound] and print it.
1.27

----------
Exercise: for every item that follows, state its recorded Aqueous Solubility.
- assay-name: Aqueous solubility, pH dependent
- Assay type: physicochemical
- details: pH 3
Lab book: enter the figure in µg/mL, no units written.

Give a short answer stating reported Aqueous Solubility for CCCCCc1cc(OC(=O)C(N)C(C)C)c2c(c1)OC(C)(C)C1CCC(C)=CC21 (stereo not drawn) [THC-Valinate (6), Δ^9-THC-valinate] .
28.76

Note Aqueous Solubility for the compound shown: CCCCCc1cc(OC(=O)C(N)CC(C)C)c2c(c1)OC(C)(C)C1CCC(C)=CC21 (stereo not drawn) [THC-Leucinate (8), Δ^9-THC-leucinate]
5.17

Please indicate Aqueous Solubility recorded for CCCCCc1cc(OC(=O)[C@@H](N)Cc2ccc(O)cc2)c2c(c1)OC(C)(C)[C@@H]1CCC(C)=C[C@@H]21 [THC-Tyrosinate (11), Δ^9-THC-tyrosinate]
5.28

Kindly indicate its recorded Aqueous Solubility. Item: CCCCCc1cc(OC(=O)CNC)c2c(c1)OC(C)(C)[C@@H]1CCC(C)=C[C@@H]21 [THC-Sarcosinate (7), Δ^9-THC-sarcosinate]
96.52

Return value of Aqueous Solubility for input CCCCCc1cc(OC(=O)[C@@H](N)CCC(N)=O)c2c(c1)OC(C)(C)[C@@H]1CCC(C)=C[C@@H]21 [THC-Glutaminate (9), Δ^9-THC-glutaminate] , no commentary.
46.29

Give me measured Aqueous Solubility, please, for this compound: CCCCCc1cc(OC(=O)[C@@H](N)C(C)C)c2c(c1)OC(C)(C)C1CCC(C)=CC21.O=C(O)CC(=O)O (stereo partly drawn) [THC-Valinate malonate]
50.03

----------
- assay-name: Aqueous solubility, pH dependent
- Assay type: physicochemical
- details: H20
Binary call on Aqueous Solubility: True from 2 µg/mL upward, False beneath that.

Could you verify whether the entry CCCCCc1cc(OC(=O)[C@@H](N)CCC(N)=O)c2c(c1)OC(C)(C)[C@@H]1CCC(C)=C[C@@H]21 [THC-Glutaminate (9), Δ^9-THC-glutaminate] shows Aqueous Solubility of no less than 2 µg/mL?
False

Check this compound for Aqueous Solubility at or above 2 µg/mL: CCCCCc1cc(OC(=O)C(NC(=O)CCC(=O)O)C(C)C)c2c(c1)OC(C)(C)C1CCC(C)=CC21 (centres unmarked) [THC-Valinate-HS (15), THC-valinate-hemisuccinate]
True

Is Aqueous Solubility at least 2 µg/mL? Consider CCCCCc1cc(OC(=O)[C@@H](N)C(C)C)c2c(c1)OC(C)(C)C1CCC(C)=CC21.O=C(O)CC(=O)O (some centres unmarked) [THC-Valinate malonate]
False

// inclusive: Aqueous Solubility at least 2 µg/mL? input: CCCCCc1cc(OC(=O)C(N)C(C)C)c2c(c1)OC(C)(C)C1CCC(C)=CC21 (centres unmarked) [THC-Valinate (6), Δ^9-THC-valinate]
False

Does the reported Aqueous Solubility for CCCCCc1cc(OC(=O)C(N)Cc2c[nH]c3ccccc23)c2c(c1)OC(C)(C)C1CCC(C)=CC21.O=C(O)CC(=O)O (centres unmarked) [THC-Tryptophanate Malonate] fall at or above the 2 µg/mL mark?
True

----------
Please respond with reported Drug loading (%) for every item in the list.
- assay-name: Thermal stability, 120° C. for 10 min
- Type: physicochemical
Write it as a number; the unit % goes unstated.

Output Drug loading (%) of CCCCCc1cc(OC(=O)[C@@H](N)Cc2ccc(O)cc2)c2c(c1)OC(C)(C)[C@@H]1CCC(C)=C[C@@H]21 [THC-Tyrosinate (11), Δ^9-THC-tyrosinate]
81.51

Output Drug loading (%) of CCCCCc1cc(OC(=O)[C@@H](N)Cc2c[nH]c3ccccc23)c2c(c1)OC(C)(C)[C@@H]1CCC(C)=C[C@@H]21 [THC-Tryptophanate (10), Δ^9-THC-tryptophinate]
89.84

# return recorded Drug loading (%) for entry CCCCCc1cc(OC(=O)[C@@H](N)CCC(N)=O)c2c(c1)OC(C)(C)[C@@H]1CCC(C)=C[C@@H]21 [THC-Glutaminate (9), Δ^9-THC-glutaminate]
63.41
